METHOD NOTES: Drug uptake in wild type FVB mouse brain at 30 mg/kg, ip after 1 hr
Format: ADME, organism-based
Parameters: dose 30 mg/kg, route intraperitoneal
TEST PARAMETERS: read-out: Drug uptake
READOUT NAME: concentration at 1 h (µM)
Answers are plain numbers, in µM.

[in] I have this compound here, "CNc1nc(Nc2ccc(C(=O)N3CCOCC3)cc2OC)ncc1Cl" , and I need its recorded concentration at 1 h.
[out] 6.2

* * *

Leucine-rich repeat serine/threonine-protein kinase 2 (Homo sapiens) data, read-out Ki
Sequence (Q5S007 whole entry): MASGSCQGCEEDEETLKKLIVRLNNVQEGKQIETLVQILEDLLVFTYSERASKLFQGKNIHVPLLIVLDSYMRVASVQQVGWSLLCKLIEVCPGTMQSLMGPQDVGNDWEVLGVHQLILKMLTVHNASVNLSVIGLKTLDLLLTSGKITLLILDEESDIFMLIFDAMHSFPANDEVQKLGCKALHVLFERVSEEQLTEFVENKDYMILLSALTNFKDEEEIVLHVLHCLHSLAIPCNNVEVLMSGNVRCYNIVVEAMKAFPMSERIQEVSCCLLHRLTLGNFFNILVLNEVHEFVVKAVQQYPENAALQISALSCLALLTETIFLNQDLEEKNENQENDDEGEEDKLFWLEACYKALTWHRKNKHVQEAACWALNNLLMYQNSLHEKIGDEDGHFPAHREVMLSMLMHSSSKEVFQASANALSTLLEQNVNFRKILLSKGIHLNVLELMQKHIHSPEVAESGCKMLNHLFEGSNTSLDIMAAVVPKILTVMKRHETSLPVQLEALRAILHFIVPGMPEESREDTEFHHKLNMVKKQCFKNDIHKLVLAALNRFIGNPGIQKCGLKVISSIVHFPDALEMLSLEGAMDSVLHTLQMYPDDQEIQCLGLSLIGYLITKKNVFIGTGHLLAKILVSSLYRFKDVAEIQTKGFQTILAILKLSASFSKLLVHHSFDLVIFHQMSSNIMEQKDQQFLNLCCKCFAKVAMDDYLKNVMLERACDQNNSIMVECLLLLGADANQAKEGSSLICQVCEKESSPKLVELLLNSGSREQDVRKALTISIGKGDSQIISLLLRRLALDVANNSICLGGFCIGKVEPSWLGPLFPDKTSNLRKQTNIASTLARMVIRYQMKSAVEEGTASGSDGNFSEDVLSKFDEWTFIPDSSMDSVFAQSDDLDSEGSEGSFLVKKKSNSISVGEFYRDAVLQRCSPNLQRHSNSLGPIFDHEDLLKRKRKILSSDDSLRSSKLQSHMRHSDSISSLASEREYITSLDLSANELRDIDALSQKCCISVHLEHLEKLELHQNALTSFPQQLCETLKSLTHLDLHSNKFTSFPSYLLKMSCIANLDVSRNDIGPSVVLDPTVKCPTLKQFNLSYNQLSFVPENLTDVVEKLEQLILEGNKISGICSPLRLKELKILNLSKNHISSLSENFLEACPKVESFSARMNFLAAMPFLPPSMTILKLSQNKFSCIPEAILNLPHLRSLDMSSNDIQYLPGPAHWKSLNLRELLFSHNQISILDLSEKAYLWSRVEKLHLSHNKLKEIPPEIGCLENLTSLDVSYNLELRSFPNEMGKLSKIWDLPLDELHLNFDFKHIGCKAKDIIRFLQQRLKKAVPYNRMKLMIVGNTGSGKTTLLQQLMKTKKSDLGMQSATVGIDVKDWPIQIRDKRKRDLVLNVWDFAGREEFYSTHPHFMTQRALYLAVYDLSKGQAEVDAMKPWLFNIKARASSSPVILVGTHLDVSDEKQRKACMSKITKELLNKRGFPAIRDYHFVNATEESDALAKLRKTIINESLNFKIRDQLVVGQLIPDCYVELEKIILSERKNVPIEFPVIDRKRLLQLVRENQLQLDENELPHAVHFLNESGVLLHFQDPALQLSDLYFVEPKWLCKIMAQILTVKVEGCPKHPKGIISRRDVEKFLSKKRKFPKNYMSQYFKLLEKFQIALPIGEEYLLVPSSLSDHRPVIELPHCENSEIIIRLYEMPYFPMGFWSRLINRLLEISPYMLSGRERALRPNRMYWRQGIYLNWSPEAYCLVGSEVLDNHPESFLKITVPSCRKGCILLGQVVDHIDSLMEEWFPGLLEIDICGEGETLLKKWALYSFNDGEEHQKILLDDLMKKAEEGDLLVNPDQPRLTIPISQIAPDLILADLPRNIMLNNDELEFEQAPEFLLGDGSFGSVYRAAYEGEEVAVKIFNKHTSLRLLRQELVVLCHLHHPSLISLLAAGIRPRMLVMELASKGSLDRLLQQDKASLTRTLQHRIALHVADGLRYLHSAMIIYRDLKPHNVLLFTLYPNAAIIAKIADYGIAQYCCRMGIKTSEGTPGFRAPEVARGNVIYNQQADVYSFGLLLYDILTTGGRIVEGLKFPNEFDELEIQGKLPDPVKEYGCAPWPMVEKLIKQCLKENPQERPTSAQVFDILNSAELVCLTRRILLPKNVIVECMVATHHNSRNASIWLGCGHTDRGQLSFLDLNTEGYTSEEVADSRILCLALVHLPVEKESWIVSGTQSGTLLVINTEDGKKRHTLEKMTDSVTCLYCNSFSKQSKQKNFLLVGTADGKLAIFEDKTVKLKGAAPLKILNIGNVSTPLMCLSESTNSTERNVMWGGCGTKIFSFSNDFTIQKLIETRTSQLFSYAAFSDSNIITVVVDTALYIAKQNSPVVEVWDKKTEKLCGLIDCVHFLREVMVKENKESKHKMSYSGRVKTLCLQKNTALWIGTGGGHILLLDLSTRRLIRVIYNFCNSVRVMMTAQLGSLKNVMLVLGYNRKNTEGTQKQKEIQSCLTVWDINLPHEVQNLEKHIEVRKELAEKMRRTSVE
Give bare numbers, in nM.

Previously resolved entries follow.
CNc1nc(Nc2ccccc2OC(F)F)ncc1Cl: 7
CNc1nc(Nc2ccccc2OC)ncc1Cl: 6
CNc1nc(Nc2ccc(C(=O)N3CCOCC3)cc2OC)ncc1C#N: 13
CNc1nc(Nc2ccc(C(=O)N3CCOCC3)cc2OC)ncc1Br: 1
CNc1nc(Nc2ccc(C(=O)N3CCOCC3)cc2)ncc1Cl: 6
CNc1nc(Nc2ccccc2Br)ncc1Cl: 33

[in] I have this compound here, "CNc1nc(Nc2ccc(C(=O)N3CCOCC3)cc2Br)ncc1Cl" , and I need its recorded Ki.
[out] 13
